- targetOrTestSystem: NL20 human bronchial epithelial cells expressing human Z-AAT (Homo sapiens, UniProt P01009, E366K)
- Construct: expressed in transfected cells; host or cells: NL20 human bronchial epithelial cells (NL20-SI line; doxycycline added with compounds)
- Sequence (P01009 25-418 E366K): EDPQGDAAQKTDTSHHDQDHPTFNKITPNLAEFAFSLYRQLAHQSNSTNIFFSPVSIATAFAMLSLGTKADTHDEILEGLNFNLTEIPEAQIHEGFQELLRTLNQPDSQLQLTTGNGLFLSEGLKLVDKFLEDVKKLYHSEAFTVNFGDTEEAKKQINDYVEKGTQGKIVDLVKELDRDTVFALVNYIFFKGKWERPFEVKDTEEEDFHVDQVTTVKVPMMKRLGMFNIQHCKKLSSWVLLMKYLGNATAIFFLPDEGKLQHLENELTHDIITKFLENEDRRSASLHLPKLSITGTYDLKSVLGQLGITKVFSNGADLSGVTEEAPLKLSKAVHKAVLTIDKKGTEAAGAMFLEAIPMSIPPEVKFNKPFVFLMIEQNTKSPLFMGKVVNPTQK
- method: AAT Function Assay (MSD Assay NL20-SI Cell Line)
- Format: cell-based
- conditionDetails: read-out: NL20 Functional EC50
Measured EC50 accompanies every entry in the list below.

Reported EC50 for CC(C)c1c(-c2ccc(C(=O)O)cc2)c2c(O)cccc2n1-c1ccc(F)c(F)c1 [Compound 282] was < 500 nM

Reported EC50 for Cc1cc(-n2c(C3COC(C)(C)OC3)c(-c3ccc(C(=O)O)cc3)c3c(O)cccc32)ccc1F [Compound 304] was > 2000 nM

Reported EC50 for Cc1cc(-n2c(C(C)(C)CO)c(-c3ccc(C(=O)O)cc3)c3c(O)cc(F)cc32)ccc1F [Compound 349] was < 500 nM

Reported EC50 for Cc1cc(-n2c(C(C)(C)CC#N)c(-c3ccc(C(=O)O)cc3)c3c(O)cc(Cl)cc32)ccc1F [Compound 359] was < 500 nM

Reported EC50 for O=C(O)c1ccc(-c2c(C(F)(F)F)n(-c3ccc(F)cc3)c3cc(F)cc(O)c23)cc1 [Compound 114] was 500 to 2000 nM

Reported EC50 for COc1cc(-c2c(C3(CO)CCC3)n(-c3ccc(F)c(F)c3)c3cc(F)cc(O)c23)ccc1C(=O)O [Compound 479] was 500 to 2000 nM

Reported EC50 for O=C(O)C1CC2(C1)CC(c1c(C3CCOCC3)n(-c3ccc(F)cc3)c3ccc(F)cc13)C2 (stereo not drawn) [Compound W16] was 500 to 2000 nM

Reported EC50 for CN(C)C(=O)CC(C)(C)c1c(-c2ccc(C(=O)O)cc2)c2c(O)cccc2n1-c1ccc(F)cc1 [Compound 133] was 500 to 2000 nM

Reported EC50 for Cc1cc(-n2c(C3CCOCC3)c(-c3ccc(C(=O)O)cc3F)c3c(O)c(F)ccc32)ccc1F [Compound 33] was < 500 nM
